system: MOLT-4 leukemia; experiment: NCI tumour cell line growth inhibition, 48 h
Measured Endpoint: TGI

Compound	Recorded Result
COc1ccc2c(-c3ccnc(Nc4cccc(OC(F)(F)F)c4)n3)cnn2n1	> 25 µM
N#CCCNc1nonc1-c1nc2ccccc2n1CC(=O)c1ccc(NC(=O)[C@@H](N)CCCCN)cc1	> 100 µM
CCN(CCN(CC)C(=O)Nc1ccccc1)C(=O)Nc1ccccc1	> 100 µM
c1ccc(N=C2c3ccsc3C(=Nc3ccccc3)c3ccsc32)cc1	3.77 µM
CN1CCc2nc3sc(C(N)=O)c(N)c3c(-c3cccs3)c2C1	48.4 µM
CSc1c(C#N)c(N)n(-c2ccc(Cl)cc2)c(=O)c1C#N	> 100 µM
COC(=O)C(=O)Cc1nc2ccccc2o1	> 100 µM
COc1cc(Nc2nc3cc(C(F)(F)F)ccc3n3cccc23)cc(OC)c1OC	> 100 µM
COc1ccc(C(=O)/C=C/c2ccc(OCC#N)cc2)cc1	77.1 µM
COc1ccc(Nc2ccnc(N3CCN(c4ccnc5cc(Cl)ccc45)CC3)n2)cc1	4.37 µM
O=C1c2c(Br)sc(Br)c2[C@@H](NC(=O)C(F)(F)F)C1Br (stereo partly specified)	5.32 µM
COc1ccc(CNc2cc(=O)n(C)c(=O)[nH]2)cc1	> 100 µM
O=C(NNS(=O)(=O)c1ccc(Cl)cc1Cl)c1cccnc1Nc1ccc(Cl)cc1	58.2 µM
O=C(c1ccco1)N(C(=O)N1CCN(c2ccccc2)CC1)S(=O)(=O)c1ccccc1	49.1 µM
CC(=O)O[C@H]1CC[C@@]2(C)C(=CC[C@@H]3[C@@H]2CC[C@]2(C)c4nc(Cl)ccc4C[C@@H]32)C1	> 100 µM
COc1ccc2c3c1O[C@H](c1ccc(O)cc1)[C@H]3[N+](C)(C)CC2	> 100 µM
Cc1cc(NS(=O)(=O)c2ccc(NC(=O)c3cccc4c(Nc5ccc(S(N)(=O)=O)cc5)c5ccccc5nc34)cc2)no1	> 100 µM
COc1cc(C2(C)SCCCS2)cc(OC)c1OC	> 100 µM
COc1ccc2c(c1)C(=O)c1c-2c(OCCN(C)C)nc2ccccc12	5.64 µM
Nc1n[nH]c2ccc([C@@H]3Nc4cc5c(cc4[C@H]4C6CCC(C6)[C@@H]34)C(=O)NC5)cc12 (stereo partly specified)	> 100 µM
COc1ccc(/C=C(\C)[N+](=O)[O-])cc1OC	9.52 µM
O=C1c2ccccc2N2OC3(N4CCCC4)CCCCC3C12c1ccccc1 (stereo unspecified)	> 100 µM
O=C(Nc1ccccc1OC(=O)c1ccccc1)c1ccccc1	> 100 µM
CC(C)(C)OC(=O)NCCCCC(N)NC(=O)c1ccccc1 (stereo unspecified)	> 100 µM
C=C1[C@@H](O)O[C@H]2[C@H]1C[C@H](OC(C)=O)[C@]13C(=O)O[C@H]4C[C@](C)(O)[C@H]([C@H]41)C31C=C(C)[C@]2(O)O1	> 100 µM
CCN1C(=O)N(CC)C2C1NN=c1s/c(=C\c3ccc(F)cc3)c(=O)n12 (stereo unspecified)	> 100 µM
N#C/C(C(=S)NCc1ccccc1)=C(/N)N1CCCC1	> 100 µM
O=c1[nH]c(Nc2nc3ccccc3[nH]2)nc(O)c1Cc1ccccc1	> 100 µM
CC1(C)CC(=O)c2c(nc3c4c([nH]c(-c5ccc(Br)cc5)c24)CC(C)(C)C3)C1	> 100 µM
COc1cccc(C2c3cc4c(cc3OC3COC(=O)C32)OCO4)c1OC (stereo unspecified)	> 100 µM
COc1cc(C(=O)Nc2cc(O)c(CC=C(C)C)c(O)c2)cc2c1O[C@]1(C)CC[C@@H](O)C(C)(C)[C@H]1C2	1.38 µM
c1cc(N2CCN(c3ccc(C4=NCCCN4)cc3)CC2)ccc1C1=NCCCN1	> 100 µM
COc1cccc(Oc2ccccc2NC(=O)CNC(=O)c2cccc3ccccc23)c1	> 25 µM
COc1cc2c(cc1F)C(c1ccccc1Cl)=Nc1c(n[nH]c1C)N2	38.6 µM
CCN(CC)c1nnc(CCCCCCCCc2nnc(N(CC)CC)o2)o1	> 100 µM
CCC1C(c2ccccc2O)c2cc3c(cc2OC1N1CCOCC1)OCO3 (stereo unspecified)	27 µM
CNNC(=NS(=O)(=O)c1cc(C#N)c(NNC)cc1S)NNC	> 10 µM
Cc1[nH]c(-c2cc(N)ccc2Cl)c2c1C(=O)CCCC2	> 100 µM
O=C1C(OCCOc2ccccc2)=C(OCCOc2ccccc2)C(=O)c2ccccc21	> 100 µM
COc1cc(C(=O)c2cc(C)c3[nH]c4ccc(O)cc4c3c2C)cc(OC)c1OC	> 100 µM
O=C(O)c1ccccc1N=Nc1c(O)c(S(=O)(=O)O)cc2cc(S(=O)(=O)O)ccc12	> 100 µM
